biological target: human orexin-2 receptor (Homo sapiens (Human), UniProt O43614)
Sequence (O43614 whole entry): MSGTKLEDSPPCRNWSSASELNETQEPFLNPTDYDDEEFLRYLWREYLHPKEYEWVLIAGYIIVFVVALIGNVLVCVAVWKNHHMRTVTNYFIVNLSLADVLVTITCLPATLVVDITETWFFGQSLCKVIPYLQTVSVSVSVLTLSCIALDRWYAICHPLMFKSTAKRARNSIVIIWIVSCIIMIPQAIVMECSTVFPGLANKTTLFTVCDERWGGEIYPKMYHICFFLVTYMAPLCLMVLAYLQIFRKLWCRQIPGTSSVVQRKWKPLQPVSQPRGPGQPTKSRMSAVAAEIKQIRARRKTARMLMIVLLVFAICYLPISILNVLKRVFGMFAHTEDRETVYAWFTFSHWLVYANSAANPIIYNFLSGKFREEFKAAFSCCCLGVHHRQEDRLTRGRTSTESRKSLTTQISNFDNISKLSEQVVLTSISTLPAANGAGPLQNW
Could you please mark satisfied for values of Ki below 0.02 µM and not satisfied for values at or above it?

Input `C[C@@H]1CS[C@@H](CSc2ccccn2)CN1C(=O)c1ccccc1-n1nccn1` ; condition: Ki strictly below 0.02 µM. Does it hold?
not satisfied

Input `C[C@@H]1CS[C@@H](COc2ccc(C(F)(F)F)cn2)CN1C(=O)c1ccccc1-n1nccn1` ; condition: Ki strictly below 0.02 µM. Does it hold?
not satisfied

Input `C[C@@H]1CS[C@@H](COc2ncccn2)CN1C(=O)c1ccccc1-n1nccn1` ; condition: Ki strictly below 0.02 µM. Does it hold?
not satisfied

Input `C[C@@H]1CS[C@@H](COc2ccc(Cl)cn2)CN1C(=O)c1ccccc1-n1nccn1` ; condition: Ki strictly below 0.02 µM. Does it hold?
satisfied

Below: the item to evaluate.
Input C[C@@H]1C[S+]([O-])[C@@H](COc2ccc(F)cn2)CN1C(=O)c1ccccc1-n1nccn1 (stereo partly shown) ; condition: Ki strictly below 0.02 µM. Does it hold?
not satisfied

###

target: human orexin-2 receptor (Homo sapiens (Human), UniProt O43614); experiment: radioligand binding assay, orexin-2 receptor (hOX2 Bind hKi); settings: membranes from CHO cells expressing OX2 receptor
MEASURE: Ki
Please state the number and follow it with the unit.

Given `Cc1ccc(OC[C@H]2CN(C(=O)c3ccccc3-n3nccn3)[C@H](C)CS2)nc1` , state its recorded Ki.
9.7 nM

Given `C[C@@H]1CS[C@@H](COc2ncccc2Cl)CN1C(=O)c1ccccc1-n1nccn1` , state its recorded Ki.
2.5 nM

Given `Cc1cnc(OC[C@H]2CN(C(=O)c3ccccc3-n3nccn3)[C@H](C)CS2)nc1Cl` , state its recorded Ki.
7.4 nM

Given `Cc1ccnc(OC[C@H]2CN(C(=O)c3ccccc3-n3nccn3)[C@H](C)CS2)c1` , state its recorded Ki.
192 nM

Given `COc1cnc(OC[C@H]2CN(C(=O)c3ccccc3-n3nccn3)[C@H](C)CS2)nc1Cl` , state its recorded Ki.
155 nM

Given `Cc1ccc(-n2nccn2)c(C(=O)N2C[C@H](COc3ccc(F)cn3)SC[C@H]2C)c1` , state its recorded Ki.
0.38 nM

Given `C[C@@H]1CS[C@@H](COc2ccc(C#N)cn2)CN1C(=O)c1ccccc1-n1nccn1` , state its recorded Ki.
47 nM

Given `C[C@@H]1CS[C@@H](COc2ccc(F)cn2)CN1C(=O)c1ccccc1-n1nccn1` , state its recorded Ki.
0.9 nM

Given `C[C@@H]1CS[C@@H](COc2ccccn2)CN1C(=O)c1ccccc1-n1nccn1` , state its recorded Ki.
15.3 nM

Given `C[C@@H]1CS[C@@H](COc2ncccc2C#N)CN1C(=O)c1ccccc1-n1nccn1` , state its recorded Ki.
150 nM

Query compound follows.
Given `Cc1nc(OC[C@H]2CN(C(=O)c3ccccc3-n3nccn3)[C@H](C)CS2)ncc1Cl` , state its recorded Ki.
32 nM
